Data origin, for the record: patent US7528124B2

method: Measurement of drug concentration in plasma and brain following oral administration to rats (LC/MS/MS)
Type: in vivo, Sprague-Dawley rats
condition_summary: male, Sprague-Dawley, rat, plasma, po, 10 mg/kg, Table 2, 2 hours after administration, average of three, read-out: Drug concentration, plasma, 2 hours
experimental_endpoint: concentration at 2 h (µg/mL)

INSERT INTO results (compound, data_value) VALUES
  ('COc1ccc(S(=O)(=O)N2C(=O)C(c3ccccc3OC)(N3C[C@H](F)C[C@H]3C(=O)N(C)C)c3cc(Cl)ccc32)c(OC)c1 (single isomer, unassigned)', 0.219);

* * *

method: Measurement of drug concentration in plasma and brain following oral administration to rats (LC/MS/MS)
Assay type: in vivo, Sprague-Dawley rats
condition_summary: male, Sprague-Dawley; Table 2; rat, oral 10 mg/kg, 2 hours after administration, brain homogenate, average of three; ND: below the quantification detection limit of 5 ng/mL; read-out: Drug concentration, brain, 2 hours
experimental_endpoint: concentration at 2 h (ng/g)

INSERT INTO results (molecule, display_unit, data_value) VALUES
  ('COc1ccc(S(=O)(=O)N2C(=O)C(c3ccccc3OC)(N3C[C@H](F)C[C@H]3C(=O)N(C)C)c3cc(Cl)ccc32)c(OC)c1 (single isomer, unassigned)', 'ng/g', 11);

* * *

method: Measurement of drug concentration in plasma and brain following oral administration to rats (LC/MS/MS)
Assay type: in vivo, Sprague-Dawley rats
condition_summary: male, Sprague-Dawley, rat, brain, po, 10 mg/kg, Table 2, 1 hour after administration, brain homogenate, average of three, read-out: Drug concentration, brain, 1 hour
experimental_endpoint: concentration at 1 h (ng/g)

INSERT INTO assay_data (compound, experimental_endpoint, data_value) VALUES
  ('COc1ccc(S(=O)(=O)N2C(=O)C(c3ccccc3OC)(N3C[C@H](F)C[C@H]3C(=O)N(C)C)c3cc(Cl)ccc32)c(OC)c1 (single isomer, unassigned)', 'concentration at 1 h', 35);

* * *

method: Measurement of drug concentration in plasma and brain following oral administration to rats (LC/MS/MS)
Assay type: in vivo, Sprague-Dawley rats
condition_summary: male, Sprague-Dawley, rat, plasma, po, 10 mg/kg, Table 3, serial tail vein sampling, 2 hours, average of three, read-out: Drug concentration in plasma, 2 hours
experimental_endpoint: concentration at 2 h

INSERT INTO measurements (molecule, data_value) VALUES
  ('COc1ccc(S(=O)(=O)N2C(=O)C(c3ccccc3OC)(N3C[C@H](F)C[C@H]3C(=O)N(C)C)c3cc(Cl)ccc32)c(OC)c1 (single isomer, unassigned)', '139 ng/mL');

* * *

method: Measurement of drug concentration in plasma and brain following oral administration to rats (LC/MS/MS)
Format: in vivo, Sprague-Dawley rats
condition_summary: male, Sprague-Dawley, rat, plasma, po, 10 mg/kg, Table 3, serial tail vein sampling, 8 hours, average of three
experimental_endpoint: concentration at 8 h (ng/mL)

INSERT INTO assay_data (compound, data_value) VALUES
  ('COc1ccc(S(=O)(=O)N2C(=O)C(c3ccccc3OC)(N3C[C@H](F)C[C@H]3C(=O)N(C)C)c3cc(Cl)ccc32)c(OC)c1 (single isomer, unassigned) [Example 1]', 10);

* * *

method: Measurement of drug concentration in plasma and brain following oral administration to rats (LC/MS/MS)
Assay type: in vivo, Sprague-Dawley rats
condition_summary: male, Sprague-Dawley, rat, plasma, po, 10 mg/kg, Table 2, 1 hour after administration, average of three, read-out: Drug concentration, plasma, 1 hour
Method: Measurement of Drug Concentration in Plasma and Brain following Oral Administration to Rats […] The concentrations of the compound of Example 1 and compound A in plasma were measured using liquid chromatography tandem mass spectrometry (LC/MS/MS). […] The m/z 632→472 and m/z 630→472 were monitored for the compound of Example 1 and compound A, respectively. […]
experimental_endpoint: concentration at 1 h (ng/mL)

INSERT INTO measurements (compound, data_value) VALUES
  ('COc1ccc(S(=O)(=O)N2C(=O)C(c3ccccc3OC)(N3C[C@H](F)C[C@H]3C(=O)N(C)C)c3cc(Cl)ccc32)c(OC)c1 (single isomer, unassigned) [Example 1]', 440);

* * *

method: Measurement of drug concentration in plasma and brain following oral administration to rats (LC/MS/MS)
Assay type: in vivo, Sprague-Dawley rats
condition_summary: male, Sprague-Dawley, rat, plasma, po, 10 mg/kg, Table 3, serial tail vein sampling, 4 hours, average of three
Procedure: Measurement of Drug Concentration in Plasma and Brain following Oral Administration to Rats […] The concentrations of the compound of Example 1 and compound A in plasma were measured using liquid chromatography tandem mass spectrometry (LC/MS/MS). […] The m/z 632→472 and m/z 630→472 were monitored for the compound of Example 1 and compound A, respectively. […]
experimental_endpoint: concentration at 4 h (ng/mL)

INSERT INTO measurements (compound, data_value) VALUES
  ('COc1ccc(S(=O)(=O)N2C(=O)C(c3ccccc3OC)(N3C[C@H](F)C[C@H]3C(=O)N(C)C)c3cc(Cl)ccc32)c(OC)c1 (single isomer, unassigned)', 51);
